EXPERIMENTAL SYSTEM: MAPK14 (human)
pIC50: −log10 of the molar value.
In this section we review reported pIC50 values for a set of compounds.

{"columns": ["CHEMICAL SMILES", "EXPERIMENTAL SYSTEM", "pIC50"],
 "data": [
  ["CC(=O)CC(C)(C)NC(=O)c1ccc(-c2cc(C(=O)NC3CC3)cc(F)c2C)cc1", "MAPK14 (human)", "> 5.00"],
  ["Cc1c(F)cc(C(=O)NC2CC2)cc1-c1ccc(C(=O)N2CCC2)cc1", "MAPK14 (human)", "> 5.00"],
  ["Cc1c(F)cc(C(=O)NC2CC2)cc1-c1ccc(C(=O)NC(C)(C)C(=O)C(C)C)cc1", "MAPK14 (human)", "> 5.00"]
]}
